Molecular target: human mitochondrial Hsp70 (mtHsp70), wild-type (human, UniProt P38646 47-679)
Sequence (P38646 47-679): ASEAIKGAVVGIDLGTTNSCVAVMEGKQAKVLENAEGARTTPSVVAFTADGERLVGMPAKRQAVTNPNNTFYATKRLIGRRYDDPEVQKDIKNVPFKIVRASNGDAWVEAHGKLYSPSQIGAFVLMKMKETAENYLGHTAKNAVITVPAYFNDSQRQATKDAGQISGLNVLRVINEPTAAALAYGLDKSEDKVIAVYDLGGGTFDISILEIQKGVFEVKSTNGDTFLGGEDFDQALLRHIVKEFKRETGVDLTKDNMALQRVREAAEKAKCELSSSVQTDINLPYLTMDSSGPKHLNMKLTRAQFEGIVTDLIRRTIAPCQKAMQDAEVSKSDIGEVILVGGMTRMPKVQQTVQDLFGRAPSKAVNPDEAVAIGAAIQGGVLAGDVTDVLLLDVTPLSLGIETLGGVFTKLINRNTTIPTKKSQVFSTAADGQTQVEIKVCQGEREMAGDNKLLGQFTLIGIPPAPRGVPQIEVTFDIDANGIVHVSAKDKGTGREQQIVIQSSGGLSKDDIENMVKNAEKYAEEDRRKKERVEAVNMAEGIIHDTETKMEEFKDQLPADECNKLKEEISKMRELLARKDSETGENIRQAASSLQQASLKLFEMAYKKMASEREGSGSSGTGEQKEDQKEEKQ
Test: fluorescence polarisation
Where no end group is shown, it is not given here.
assay metric: pKd
Recall that pKd is obtained by taking minus log10 of the concentration measured in molar.

## Input Entry ALLLSAPRR (also: fluorescein label, position not given here) [fluorescein-labeled P5 peptide (F-P5)] has what pKd?
## Output 4.81
